Molecular target: Vasopressin V2 receptor (Homo sapiens, UniProt P30518)
Sequence (P30518 whole entry): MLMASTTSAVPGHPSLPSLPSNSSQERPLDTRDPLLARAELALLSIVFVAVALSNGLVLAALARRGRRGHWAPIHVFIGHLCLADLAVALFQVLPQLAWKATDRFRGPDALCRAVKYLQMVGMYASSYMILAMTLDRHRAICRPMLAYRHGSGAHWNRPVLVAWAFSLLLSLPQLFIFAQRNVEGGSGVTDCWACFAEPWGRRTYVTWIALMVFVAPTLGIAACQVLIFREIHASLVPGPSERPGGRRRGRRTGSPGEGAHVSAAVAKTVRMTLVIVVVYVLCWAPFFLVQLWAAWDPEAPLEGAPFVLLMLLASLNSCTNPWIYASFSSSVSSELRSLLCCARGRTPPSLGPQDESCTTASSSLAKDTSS
Experiment: Inhibitory activity against human recombinant arginine vasopressin V2 receptor using [3H]AVP as radioligand in CHO cells
Format: cell-based
MEASURED_PROPERTY: log10(IC50) (log10 of the value in nM)
Note: values are log10 of IC50 expressed in nM.

Consider the compound CN(C)C1CCN(C(=O)COc2cc(C(=O)N3CCCCc4sccc43)ccc2NC(=O)c2ccccc2-c2ccccc2)CC1 and give its measured log10(IC50).
0.90

----------
Test system: Rattus norvegicus
Test: Diuretic effect was determined after peroral administration at a dose of 10 mg/kg in rats
Assay type: functional, Urine
Settings: route oral
Urine volume reference
Give the value, in units of ml 4hr-1, as a plain number.

MOLECULE	TESTED_TARGET	MEASURED_NUMBER
O=C(Nc1ccc(C(=O)N2CCCCc3sccc32)cc1O)c1ccccc1-c1ccccc1	Rattus norvegicus	2.3
CCN(CC)C1CCN(C(=O)CCCOc2cc(C(=O)N3CCCCc4sccc43)ccc2NC(=O)c2ccccc2-c2ccccc2)CC1	Rattus norvegicus	18
O=C(Nc1ccc(C(=O)N2CCCN(CCN3CCCC3)c3sccc32)cc1)c1ccccc1-c1ccccc1	Rattus norvegicus	6.3

Consider the molecule CN1CCN(C(=O)CCCOc2cc(C(=O)N3CCCCc4sccc43)ccc2NC(=O)c2ccccc2-c2ccccc2)CC1 and give its measured Urine volume.
17.6

Consider the molecule CN(C)CCN(C)CCCCOc1cc(C(=O)N2CCCCc3sccc32)ccc1NC(=O)c1ccccc1-c1ccccc1 and give its measured Urine volume.
10.2

Consider the molecule CN1CCN(CCCCOc2cc(C(=O)N3CCCCc4sccc43)ccc2NC(=O)c2ccccc2-c2ccccc2)CC1 and give its measured Urine volume.
16.9

----------
Target: Vasopressin V1 receptor (Rattus norvegicus, UniProt P48974+P30560)
Test: Inhibitory activity against arginine vasopressin V1 receptor using [3H]AVP as radioligand in rat liver
IC50 reference
Give the value, in units of nM, as a plain number.

RECORD_SMILES	MEASURED_NUMBER
CN1CCCN(CCCOc2cc(C(=O)N3CCCCc4sccc43)ccc2NC(=O)c2ccccc2-c2ccccc2)CC1	2
CN1CCCN(C(=O)CCCOc2cc(C(=O)N3CCCCc4sccc43)ccc2NC(=O)c2ccccc2-c2ccccc2)CC1	20
CCN(CC)C1CCN(C(=O)CCCOc2cc(C(=O)N3CCCCc4sccc43)ccc2NC(=O)c2ccccc2-c2ccccc2)CC1	4
O=C(Nc1ccc(C(=O)N2CCCCc3sccc32)cc1OCCCC(=O)N1CCC(N2CCCCC2)CC1)c1ccccc1-c1ccccc1	20
CN(C)CCN1CCCN(C(=O)c2ccc(NC(=O)c3ccccc3-c3ccccc3)cc2)c2ccsc21	300
O=C(Nc1ccc(C(=O)N2CCCN(Cc3cccnc3)c3sccc32)cc1)c1ccccc1-c1ccccc1	500
CN1CCN(CCN2CCCN(C(=O)c3ccc(NC(=O)c4ccccc4-c4ccccc4)cc3)c3ccsc32)CC1	200

Turning now to a further record.
Consider the molecule CN1CCN(CCCCOc2cc(C(=O)N3CCCCc4sccc43)ccc2NC(=O)c2ccccc2-c2ccccc2)CC1 and give its measured IC50.
3

----------
Molecular target: Vasopressin V1 receptor (Rattus norvegicus, UniProt P48974+P30560)
Test: Inhibitory activity against arginine vasopressin V1 receptor using [3H]AVP as radioligand in rat liver
MEASURED_PROPERTY: IC50 (nM)
Give the value, in units of nM, as a plain number.

The examples below pair each entry with its known result.
MOLECULE	MEASURED_PROPERTY	UNIT_TEXT	MEASURED_NUMBER
COc1cc(C(=O)N2CCCC(N(C)C)c3sccc32)ccc1NC(=O)c1ccccc1-c1ccccc1 (stereo not drawn)	IC50	nM	2000
O=C(Nc1ccc(C(=O)N2CCCN(CCN3CCCC3)c3sccc32)cc1)c1ccccc1-c1ccccc1	IC50	nM	200
O=C(Nc1ccc(C(=O)N2CCCN(Cc3ccccc3)c3sccc32)cc1)c1ccccc1-c1ccccc1	IC50	nM	500
CN(C)CCN(C)CCCCOc1cc(C(=O)N2CCCCc3sccc32)ccc1NC(=O)c1ccccc1-c1ccccc1	IC50	nM	20
O=C(Nc1ccc(C(=O)N2CCCCc3sccc32)cc1O)c1ccccc1-c1ccccc1	IC50	nM	200
CN1CCN(C(=O)CCCOc2cc(C(=O)N3CCCCc4sccc43)ccc2NC(=O)c2ccccc2-c2ccccc2)CC1	IC50	nM	20

Consider the molecule CN(C)C1CCN(C(=O)CCCOc2cc(C(=O)N3CCCCc4sccc43)ccc2NC(=O)c2ccccc2-c2ccccc2)CC1 and give its measured IC50.
6

Consider the molecule CN(C)C1CCN(C(=O)COc2cc(C(=O)N3CCCCc4sccc43)ccc2NC(=O)c2ccccc2-c2ccccc2)CC1 and give its measured IC50.
20

----------
Molecular target: Vasopressin V1 receptor (Homo sapiens, UniProt P37288+P47901)
Assay: Inhibitory activity against arginine vasopressin V1 receptor using [3H]AVP as radioligand in human platelet
MEASURED_PROPERTY: IC50

The examples below pair each entry with its known result.
COMPOUND	TESTED_TARGET	MEASURED_PROPERTY	RESULT
CN1CCCN(CCCOc2cc(C(=O)N3CCCCc4sccc43)ccc2NC(=O)c2ccccc2-c2ccccc2)CC1	Vasopressin V1 receptor (Homo sapiens, UniProt P37288+P47901)	IC50	< 1 nM
CN(C)C1CCN(C(=O)CCCOc2cc(C(=O)N3CCCCc4sccc43)ccc2NC(=O)c2ccccc2-c2ccccc2)CC1	Vasopressin V1 receptor (Homo sapiens, UniProt P37288+P47901)	IC50	3 nM
CN1CCN(CCN2CCCN(C(=O)c3ccc(NC(=O)c4ccccc4-c4ccccc4)cc3)c3ccsc32)CC1	Vasopressin V1 receptor (Homo sapiens, UniProt P37288+P47901)	IC50	1000 nM
CN(C)CCN1CCCN(C(=O)c2ccc(NC(=O)c3ccccc3-c3ccccc3)cc2)c2ccsc21	Vasopressin V1 receptor (Homo sapiens, UniProt P37288+P47901)	IC50	400 nM
CN1CCN(CCCCOc2cc(C(=O)N3CCCCc4sccc43)ccc2NC(=O)c2ccccc2-c2ccccc2)CC1	Vasopressin V1 receptor (Homo sapiens, UniProt P37288+P47901)	IC50	5 nM
CN(C)CCN(C)CCCCOc1cc(C(=O)N2CCCCc3sccc32)ccc1NC(=O)c1ccccc1-c1ccccc1	Vasopressin V1 receptor (Homo sapiens, UniProt P37288+P47901)	IC50	5 nM
O=C(Nc1ccc(C(=O)N2CCCCc3sccc32)cc1OCCCC(=O)N1CCC(N2CCCCC2)CC1)c1ccccc1-c1ccccc1	Vasopressin V1 receptor (Homo sapiens, UniProt P37288+P47901)	IC50	10 nM
CCN(CC)C1CCN(C(=O)CCCOc2cc(C(=O)N3CCCCc4sccc43)ccc2NC(=O)c2ccccc2-c2ccccc2)CC1	Vasopressin V1 receptor (Homo sapiens, UniProt P37288+P47901)	IC50	4 nM
COc1cc(C(=O)N2CCCC(N(C)C)c3sccc32)ccc1NC(=O)c1ccccc1-c1ccccc1 (configuration not stated)	Vasopressin V1 receptor (Homo sapiens, UniProt P37288+P47901)	IC50	3000 nM
O=C(Nc1ccc(C(=O)N2CCCN(Cc3ccccc3)c3sccc32)cc1)c1ccccc1-c1ccccc1	Vasopressin V1 receptor (Homo sapiens, UniProt P37288+P47901)	IC50	400 nM

Consider the compound CN(C)C1CCN(C(=O)COc2cc(C(=O)N3CCCCc4sccc43)ccc2NC(=O)c2ccccc2-c2ccccc2)CC1 and give its measured IC50.
50 nM

Consider the compound O=C(Nc1ccc(C(=O)N2CCCN(Cc3cccnc3)c3sccc32)cc1)c1ccccc1-c1ccccc1 and give its measured IC50.
700 nM

----------
System: Rattus norvegicus
Assay: Antagonistic effect against AVP-induced hypertension in rats after intravenous administration
Assay type: functional
Conditions: read-out: ID50 (the source's name)
ED50 reference
Give the value, in units of mg/kg, as a plain number.

The examples below pair each entry with its known result.
RECORD_SMILES	ED50 (mg/kg)
O=C(Nc1ccc(C(=O)N2CCCN(Cc3cccnc3)c3sccc32)cc1)c1ccccc1-c1ccccc1	0.14
O=C(Nc1ccc(C(=O)N2CCCCc3sccc32)cc1OCCCC(=O)N1CCC(N2CCCCC2)CC1)c1ccccc1-c1ccccc1	0.03
CN1CCCN(CCCOc2cc(C(=O)N3CCCCc4sccc43)ccc2NC(=O)c2ccccc2-c2ccccc2)CC1	0.03
CN(C)C1CCN(C(=O)CCCOc2cc(C(=O)N3CCCCc4sccc43)ccc2NC(=O)c2ccccc2-c2ccccc2)CC1	0.005
CN(C)C1CCN(C(=O)COc2cc(C(=O)N3CCCCc4sccc43)ccc2NC(=O)c2ccccc2-c2ccccc2)CC1	0.02

Consider the molecule O=C(Nc1ccc(C(=O)N2CCCCc3sccc32)cc1O)c1ccccc1-c1ccccc1 and give its measured ED50.
0.04

----------
IC50 reference
Biological target: Vasopressin V2 receptor (Homo sapiens, UniProt P30518)
Experiment: Inhibitory activity against human recombinant arginine vasopressin V2 receptor using [3H]AVP as radioligand in CHO cells
Give the value, in units of nM, as a plain number.

The examples below pair each entry with its known result.
COMPOUND	IC50 [nM]
O=C(Nc1ccc(C(=O)N2CCCN(Cc3cccnc3)c3sccc32)cc1)c1ccccc1-c1ccccc1	60
O=C(Nc1ccc(C(=O)N2CCCN(Cc3ccccc3)c3sccc32)cc1)c1ccccc1-c1ccccc1	80
COc1cc(C(=O)N2CCCC(N(C)C)c3sccc32)ccc1NC(=O)c1ccccc1-c1ccccc1 (configuration not stated)	20
CN1CCCN(CCCOc2cc(C(=O)N3CCCCc4sccc43)ccc2NC(=O)c2ccccc2-c2ccccc2)CC1	2
CCN(CC)C1CCN(C(=O)CCCOc2cc(C(=O)N3CCCCc4sccc43)ccc2NC(=O)c2ccccc2-c2ccccc2)CC1	9

Turning now to a further record.
Consider the compound O=C(Nc1ccc(C(=O)N2CCCCc3sccc32)cc1OCCCC(=O)N1CCC(N2CCCCC2)CC1)c1ccccc1-c1ccccc1 and give its measured IC50.
30
